molecular target: UniProt P00519
Sequence (P00519 whole entry): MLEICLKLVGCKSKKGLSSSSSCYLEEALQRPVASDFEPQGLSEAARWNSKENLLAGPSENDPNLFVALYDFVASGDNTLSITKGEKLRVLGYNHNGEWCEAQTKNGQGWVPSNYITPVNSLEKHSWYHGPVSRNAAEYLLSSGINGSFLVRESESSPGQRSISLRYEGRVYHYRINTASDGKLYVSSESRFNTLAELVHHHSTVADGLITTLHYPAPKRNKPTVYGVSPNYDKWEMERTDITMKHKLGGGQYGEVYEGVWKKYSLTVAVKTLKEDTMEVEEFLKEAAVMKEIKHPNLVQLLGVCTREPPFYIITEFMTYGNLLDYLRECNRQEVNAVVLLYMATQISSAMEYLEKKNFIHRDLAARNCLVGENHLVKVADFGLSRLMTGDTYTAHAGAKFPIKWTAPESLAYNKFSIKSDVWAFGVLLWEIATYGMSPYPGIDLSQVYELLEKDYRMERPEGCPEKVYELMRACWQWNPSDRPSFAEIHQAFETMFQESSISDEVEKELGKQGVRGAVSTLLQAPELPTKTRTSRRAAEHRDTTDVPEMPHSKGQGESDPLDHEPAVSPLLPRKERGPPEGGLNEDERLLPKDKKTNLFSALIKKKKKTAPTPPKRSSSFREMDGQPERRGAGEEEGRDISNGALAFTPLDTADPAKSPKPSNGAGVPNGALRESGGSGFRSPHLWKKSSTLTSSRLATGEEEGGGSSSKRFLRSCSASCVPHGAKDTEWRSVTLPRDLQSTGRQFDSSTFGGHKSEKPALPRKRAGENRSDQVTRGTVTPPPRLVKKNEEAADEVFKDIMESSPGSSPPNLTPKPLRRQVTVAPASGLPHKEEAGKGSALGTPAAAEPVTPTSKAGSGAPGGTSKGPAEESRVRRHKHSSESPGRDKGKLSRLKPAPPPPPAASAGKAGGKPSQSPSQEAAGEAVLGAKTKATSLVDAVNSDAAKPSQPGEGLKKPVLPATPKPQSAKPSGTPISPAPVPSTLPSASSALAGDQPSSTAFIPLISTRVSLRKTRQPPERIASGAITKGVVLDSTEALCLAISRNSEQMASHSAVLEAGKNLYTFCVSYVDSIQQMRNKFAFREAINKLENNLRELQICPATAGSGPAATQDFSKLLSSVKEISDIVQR
pIC50: −log10 of the molar value.
result.type: pIC50

[[record]]
smiles_repr = "CN1CCN(c2ccc(Nc3ncc(C#N)c(Nc4ccccc4C(N)=O)n3)cc2)CC1.Cl"
result_number = 6.89


---

molecular target: UniProt:Q00535
Sequence (Q00535 whole entry): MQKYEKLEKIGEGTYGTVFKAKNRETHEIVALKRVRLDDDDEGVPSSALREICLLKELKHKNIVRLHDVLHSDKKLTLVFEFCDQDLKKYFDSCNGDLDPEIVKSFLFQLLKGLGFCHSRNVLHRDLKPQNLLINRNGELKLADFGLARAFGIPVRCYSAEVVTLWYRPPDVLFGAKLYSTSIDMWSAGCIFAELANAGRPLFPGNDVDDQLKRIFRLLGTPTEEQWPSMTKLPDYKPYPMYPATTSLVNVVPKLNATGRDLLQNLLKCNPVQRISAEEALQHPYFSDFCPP
Below, each of the molecules is paired with its reported IC50 value.
result.type: IC50

[[record]]
molecule = "CN(C)CC(O)COc1ccc(Nc2ncc([N+](=O)[O-])c(Nc3ccccc3O)n2)cc1.O=C(O)C(F)(F)F (centres unmarked)"
result_type = "IC50"
result = "> 20 µM"

[[record]]
molecule = "Cl.NCC1(c2nc(-c3ccc(Cl)c(O)c3)c(-c3ccncc3)[nH]2)CCCCC1"
result_type = "IC50"
result = "> 20 µM"

